Test: Cytotoxicity against human HepG2.2.15 cells assessed as cell death after 9 days by MTT assay
Type: cell-based, HepG2 2.2.15
Please assign a class to every record based on measured CC50 at 216 h, with ranges low-valued = under 500 µM, mid-valued = from 500 µM up to 700 µM, high-valued = 700 µM and over

Query string: Any idea which band Nc1ccn([C@@H]2CS[C@H](CO)O2)c(=O)n1 is in?
Result string: mid-valued

Query string: What do we get for COc1cc(/C=C/C(=O)O/N=C/c2cccs2)cc(OC)c1OC ?
Result string: high-valued

Query string: What do we get for O/N=C/c1ccccn1 ?
Result string: low-valued

Query string: What do we get for COc1ccc(/C=C/C(=O)O)cc1OC ?
Result string: mid-valued

Query string: What do we get for COc1cc(/C=C/C(=O)O)cc(OC)c1OC ?
Result string: high-valued

Query string: What do we get for COc1ccc(/C=C/C(=O)O/N=C/c2ccco2)cc1OC ?
Result string: mid-valued

Query string: What do we get for O=Cc1ccc2c(c1)OCO2 ?
Result string: high-valued

Query string: What do we get for COc1cc(/C=C/C(=O)O)cc2c1OCO2 ?
Result string: mid-valued

Query string: What do we get for COc1ccc(/C=C/C(=O)O/N=C/c2ccccn2)cc1OC ?
Result string: mid-valued

Query string: What do we get for O/N=C/c1ccco1 ?
Result string: low-valued

Query string: What do we get for COc1cc(/C=C/C(=O)O/N=C/c2ccccn2)cc2c1OCO2 ?
Result string: mid-valued

Query string: What do we get for COc1cc(/C=C/C(=O)O/N=C/c2ccccn2)cc(OC)c1OC ?
Result string: high-valued

Query string: What do we get for O=C(/C=C/c1ccc2c(c1)OCO2)O/N=C/c1cccs1 ?
Result string: low-valued

Query string: What do we get for O=C(/C=C/c1ccc2c(c1)OCO2)O/N=C/c1ccccn1 ?
Result string: low-valued

Query string: What do we get for O=C(/C=C/c1ccc2c(c1)OCO2)O/N=C/c1ccco1 ?
Result string: low-valued

Query string: What do we get for COc1ccc(C=O)cc1OC ?
Result string: high-valued

Query string: What do we get for COc1cc(C=O)cc(OC)c1OC ?
Result string: high-valued

Query string: What do we get for COc1cc(C=O)cc2c1OCO2 ?
Result string: high-valued

Query string: What do we get for COc1cc(/C=C/C(=O)O/N=C/c2cccs2)cc2c1OCO2 ?
Result string: mid-valued

Query string: What do we get for COc1cc(/C=C/C(=O)O/N=C/c2ccco2)cc(OC)c1OC ?
Result string: high-valued

Query string: What do we get for COc1cc(/C=C/C(=O)O/N=C/c2ccco2)cc2c1OCO2 ?
Result string: high-valued

Query string: What do we get for O/N=C/c1cccs1 ?
Result string: mid-valued

Query string: What do we get for COc1ccc(/C=C/C(=O)O/N=C/c2cccs2)cc1OC ?
Result string: mid-valued
